# System: Escherichia coli MG1655
# procedure-text: Antibiotic MIC determination (serial twofold dilutions, OD600 during 17 hours at 37° C.)
# Format: cell-based
# condition-details: Escherichia coli, MG1655, read-out: MIC in MOPS glucose 0.4%; MOPS minimal medium glucose 0.4%, 37° C.
MIC strictly less than 100 µg/mL = 1. Otherwise -1.

{"columns": ["molecule", "answer-label"],
 "data": [
  ["CC1COc2c(N3CCN(C)CC3)c(F)cc3c(=O)c(C(=O)O)cn1c23 (centres unmarked)", 1],
  ["NCC[C@H](O)C(=O)N[C@@H]1C[C@H](N)[C@@H](O[C@H]2O[C@H](CN)[C@@H](O)[C@H](O)[C@H]2O)[C@H](O)[C@H]1O[C@H]1O[C@H](CO)[C@@H](O)[C@H](N)[C@H]1O", 1],
  ["NC[C@H]1O[C@H](O[C@H]2[C@H](O)[C@@H](O[C@H]3O[C@H](CO)[C@@H](O)[C@H](N)[C@H]3O)[C@H](N)C[C@@H]2N)[C@H](O)[C@@H](O)[C@@H]1O", 1],
  ["Cc1cc(NS(=O)(=O)c2ccc(N)cc2)no1", -1],
  ["COc1ccc(C[C@H](N)C(=O)N[C@H]2[C@@H](O)[C@H](n3cnc4c(N(C)C)ncnc43)O[C@@H]2CO)cc1", -1],
  ["CC[C@H]1OC(=O)[C@H](C)[C@@H](O[C@H]2C[C@@](C)(OC)[C@@H](O)[C@H](C)O2)[C@H](C)[C@@H](O[C@@H]2O[C@H](C)C[C@H](N(C)C)[C@H]2O)[C@](C)(O)C[C@@H](C)CN(C)[C@H](C)[C@@H](O)[C@]1(C)O", -1],
  ["CO[C@H]1/C=C/O[C@@]2(C)Oc3c(C)c(O)c4c(O)c(c(/C=N/N5CCN(C)CC5)c(O)c4c3C2=O)NC(=O)/C(C)=C\\C=C\\[C@H](C)[C@H](O)[C@@H](C)[C@@H](O)[C@@H](C)[C@H](OC(C)=O)[C@@H]1C", 1],
  ["CC1(C)S[C@@H]2[C@H](NC(=O)[C@H](N)c3ccccc3)C(=O)N2[C@H]1C(=O)O", 1]
]}

###

# Lookup of reported MIC keyed by entry
# Test system: Escherichia coli MG1655
# procedure-text: Antibiotic MIC determination (serial twofold dilutions, OD600 during 17 hours at 37° C.)
# Type: cell-based
# condition-details: Escherichia coli, MG1655, read-out: MIC in MOPS glucose 0.4%; MOPS minimal medium glucose 0.4%, 37° C.
measured-quantity: MIC (µg/mL)

{"columns": ["item-smiles", "measured-quantity", "recorded-measurement"],
 "data": [
  ["CN[C@@H]1[C@H](O)[C@H](NC)[C@H]2O[C@@]3(O)C(=O)C[C@@H](C)O[C@H]3O[C@@H]2[C@H]1O", "MIC", 100],
  ["C[C@@H]1O[C@@H]1P(=O)(O)O", "MIC", 100],
  ["CO[C@@]1(NC(=O)Cc2cccs2)C(=O)N2C(C(=O)O)=C(COC(N)=O)CS[C@@H]21", "MIC", 100]
]}
